Tested on: Bacillus subtilis ATCC 6633
Experiment Notes: Antibacterial MIC, microdilution susceptibility test (CLSI)
Type: cell-based
Experimental Conditions: Bacillus subtilis, ATCC6633, 24 h, Mueller–Hinton broth, 37 °C, 24 h; read-out: MIC, μg/mL ± SE, B. Subtilis (ATCC 6633)
Measured Metric: MIC (µg/mL)
Dear colleague, please return just the value in µg/mL, with no unit written.

Reference set (5 entries):
>>> measurement("O=C(NC[C@H]1CN(c2ccc(N3CCOCC3)c(F)c2)C(=O)O1)c1cccnc1")
2
>>> measurement("O=C1O[C@@H](CNCc2cccc(Cl)c2)CN1c1ccc(N2CCOCC2)c(F)c1 [Compound 11d]")
32
>>> measurement("CS(=O)(=O)c1ccc(CNC[C@H]2CN(c3ccc(N4CCOCC4)c(F)c3)C(=O)O2)cc1 [Compound 11b]")
32
>>> measurement("O=C1O[C@@H](CNCc2ccc(C(F)(F)F)cc2)CN1c1ccc(N2CCOCC2)c(F)c1 [Compound 11c]")
16
>>> measurement("CC(C)C[C@H](NC(=O)c1cnccn1)C(=O)NC[C@H]1CN(c2ccc(N3CCOCC3)c(F)c2)C(=O)O1")
32

Input CC(C)[C@H](NC(=O)OCc1ccccc1)C(=O)NC[C@H]1CN(c2ccc(N3CCOCC3)c(F)c2)C(=O)O1 , output reported MIC.
32

Input CNc1ccc(C(=O)NC[C@H]2CN(c3ccc(N4CCOCC4)c(F)c3)C(=O)O2)cc1 , output reported MIC.
1

Input O=C(NC[C@H]1CN(c2ccc(N3CCOCC3)c(F)c2)C(=O)O1)c1cccc([N+](=O)[O-])c1Cl , output reported MIC.
4

Input O=C(NC[C@H]1CN(c2ccc(N3CCOCC3)c(F)c2)C(=O)O1)c1ccc(F)cc1 , output reported MIC.
1

Input O=C(NC[C@H]1CN(c2ccc(N3CCOCC3)c(F)c2)C(=O)O1)c1ccccc1 , output reported MIC.
1

Input CSCC[C@H](NC(=O)OC(C)(C)C)C(=O)NC[C@H]1CN(c2ccc(N3CCOCC3)c(F)c2)C(=O)O1 , output reported MIC.
32

Input CC(C)(C)OC(=O)NCC(=O)NC[C@H]1CN(c2ccc(N3CCOCC3)c(F)c2)C(=O)O1 , output reported MIC.
8

Input O=C(NC[C@H]1CN(c2ccc(N3CCOCC3)c(F)c2)C(=O)O1)c1cnccn1 , output reported MIC.
2

Input O=C1O[C@@H](CNCc2ccc(F)cc2)CN1c1ccc(N2CCOCC2)c(F)c1 [Compound 11a] , output reported MIC.
32

Input C[C@H](NC(=O)OCc1ccccc1)C(=O)NC[C@H]1CN(c2ccc(N3CCOCC3)c(F)c2)C(=O)O1 , output reported MIC.
32

Input O=C(CNC(=O)OCc1ccccc1)NC[C@H]1CN(c2ccc(N3CCOCC3)c(F)c2)C(=O)O1 , output reported MIC.
4

Input O=C(N[C@@H](Cc1ccccc1)C(=O)NC[C@H]1CN(c2ccc(N3CCOCC3)c(F)c2)C(=O)O1)c1cnccn1 , output reported MIC.
32

###

Tested on: Pseudomonas aeruginosa ATCC 15692
Experiment Notes: Antibacterial MIC, microdilution susceptibility test (CLSI)
Format: cell-based
Experimental Conditions: ATCC15692, Mueller–Hinton broth, 37 °C, 24 h, read-out: MIC, μg/mL ± SE, P. Aeruginosa (ATCC 15692)
Measured Metric: MIC (µg/mL)
Dear colleague, please return just the value in µg/mL, with no unit written.

Reference set (2 entries):
>>> measurement("O=C(NC[C@H]1CN(c2ccc(N3CCOCC3)c(F)c2)C(=O)O1)c1ccncc1")
8
>>> measurement("O=C1O[C@@H](CNCc2ccc(C(F)(F)F)cc2)CN1c1ccc(N2CCOCC2)c(F)c1 [Compound 11c]")
64

Now take the following compound into account.
Input O=C1O[C@@H](CNCc2ccc(F)cc2)CN1c1ccc(N2CCOCC2)c(F)c1 [Compound 11a] , output reported MIC.
32

###

Tested on: Bacillus subtilis ATCC 6633
Experiment Notes: Antibacterial MIC, microdilution susceptibility test (CLSI)
Type: cell-based
Experimental Conditions: Bacillus subtilis, ATCC6633, 24 h, Mueller–Hinton broth, 37 °C, 24 h; read-out: MIC, μg/mL ± SE, B. Subtilis (ATCC 6633)
Parameter MIC: see the listing below.

Reference set (6 entries):
>>> measurement("C[C@H](NC(=O)OC(C)(C)C)C(=O)NC[C@H]1CN(c2ccc(N3CCOCC3)c(F)c2)C(=O)O1 [Compound 3g]")
"32 µg/mL"
>>> measurement("CC[C@H](C)[C@H](NC(=O)OC(C)(C)C)C(=O)NC[C@H]1CN(c2ccc(N3CCOCC3)c(F)c2)C(=O)O1 [Compound 3k]")
"32 µg/mL"
>>> measurement("CC(=O)NC[C@H]1CN(c2ccc(N3CCOCC3)c(F)c2)C(=O)O1 [Linezolid]")
"0.25 µg/mL"
>>> measurement("O=C(CCCC[C@@H]1SC[C@@H]2NC(=O)N[C@@H]21)NC[C@H]1CN(c2ccc(N3CCOCC3)c(F)c2)C(=O)O1 [Compound 15]")
"32 µg/mL"
>>> measurement("O=C(N[C@@H](Cc1ccccc1)C(=O)NC[C@H]1CN(c2ccc(N3CCOCC3)c(F)c2)C(=O)O1)OCc1ccccc1 [Compound 3e]")
"32 µg/mL"
>>> measurement("O=C1O[C@@H](CNCc2ccc(F)cc2F)CN1c1ccc(N2CCOCC2)c(F)c1 [Compound 11e]")
"32 µg/mL"

Now take the following compound into account.
Input O=C(NC[C@H]1CN(c2ccc(N3CCOCC3)c(F)c2)C(=O)O1)c1ccc(Cl)cc1 [Compound 5c] , output reported MIC.
2 µg/mL

###

Parameter MIC: see the listing below.
Tested on: Bacillus subtilis ATCC 6633
Experiment Notes: Antibacterial MIC, microdilution susceptibility test (CLSI)
Format: cell-based
Experimental Conditions: Bacillus subtilis, ATCC6633, 24 h, Mueller–Hinton broth, 37 °C, 24 h; read-out: MIC, μg/mL ± SE, B. Subtilis (ATCC 6633)
Dear colleague, please return just the value in µg/mL, with no unit written.

>>> measurement("CC(C)[C@H](NC(=O)c1cnccn1)C(=O)NC[C@H]1CN(c2ccc(N3CCOCC3)c(F)c2)C(=O)O1")
32
>>> measurement("O=C1O[C@@H](CNCCCO[N+](=O)[O-])CN1c1ccc(N2CCOCC2)c(F)c1")
32
>>> measurement("COc1cc(CNC[C@H]2CN(c3ccc(N4CCOCC4)c(F)c3)C(=O)O2)cc(OC)c1 [Compound 11f]")
32

Input CC(C)[C@H](NC(=O)OC(C)(C)C)C(=O)NC[C@H]1CN(c2ccc(N3CCOCC3)c(F)c2)C(=O)O1 , output reported MIC.
32

Input CC(C)(C)OC(=O)N[C@@H](Cc1ccccc1)C(=O)NC[C@H]1CN(c2ccc(N3CCOCC3)c(F)c2)C(=O)O1 , output reported MIC.
32

Input O=C(NC[C@H]1CN(c2ccc(N3CCOCC3)c(F)c2)C(=O)O1)c1ccc([N+](=O)[O-])cc1 , output reported MIC.
1

Input O=C(NC[C@H]1CN(c2ccc(N3CCOCC3)c(F)c2)C(=O)O1)c1ccncc1 , output reported MIC.
2

src = paper PMC8880098
